All values here come from ChEMBL document CHEMBL1201862.

# System: Malme-3M
# Method Summary: NCI tumour cell line growth inhibition, 48 h
Active and inactive are the calls of the source. Cut-off read from the data, not from the text of the source: active = GI50 up to about 1.1 µM and inactive = higher.

>  <Molecule>
COc1ccc(-c2cc(-c3cc(Cl)cc(Br)c3O)nc(O)n2)cc1

>  <GI50>
19.4 µM (inactive)

$$$$
>  <Molecule>
CCOC(=O)Nn1cnnc1C

>  <GI50>
> 100 µM (inactive)

$$$$
>  <Molecule>
C[C@H]1[C@H](N2CCCC2)O[Si](C(C)(C)C)(C(C)(C)C)[C@@H]1C

>  <GI50>
59.2 µM (inactive)

$$$$
>  <Molecule>
Nc1cc(CO)cc(Nc2nc3ccc(Cl)cc3c3[nH]c4ccccc4c23)c1

>  <GI50>
5.27 µM (inactive)

$$$$
>  <Molecule>
Nc1ccn(CC(CO)CC(c2ccccc2)P(=O)(O)O)c(=O)n1 (stereo unspecified)

>  <GI50>
> 100 µM (inactive)

$$$$
>  <Molecule>
CN1N=C(N)c2cn(C3OC(COP(=O)(O)O)C(O)C3O)c3ncnc1c23 (stereo unspecified)

>  <GI50>
136 µM (inactive)

$$$$
>  <Molecule>
O=[N+]([O-])C(=C(N1CCOCC1)N1CCOCC1)/C(Cl)=C(\Cl)Br

>  <GI50>
16.1 µM (inactive)

$$$$
>  <Molecule>
CC(=O)Nc1ccc(C2C(C(=O)Nc3ccccc3)=C(C)NC(C)=C2C(=O)Nc2ccccc2)cc1

>  <GI50>
> 100 µM (inactive)

$$$$
>  <Molecule>
CN(C)CCCNC(=O)c1c(O)c2ccccc2n(C)c1=O

>  <GI50>
72.4 µM (inactive)

$$$$
>  <Molecule>
O=C(O)c1nc2ccc(Cl)cc2[nH]c1=O

>  <GI50>
> 100 µM (inactive)

$$$$
>  <Molecule>
Clc1cccc(N/N=N/c2ccc(-c3nc4ccccc4s3)cc2)c1

>  <GI50>
26.6 µM (inactive)

$$$$
